TESTED TARGET: Fuc(a1-2)Gal(b1-4)GlcNAc(b1-3)[Fuc(a1-3)[Gal(b1-4)]GlcNAc(b1-6)]Gal(b1-4)Glc
ASSAY PROCEDURE: glycan array binding signal (z-score within array); higher = stronger binding
ASSAY CONDITIONS: glycan notation: IUPAC condensed, linker removed
The entries come from a sample that favours the strongest signals as a whole.
PROPERTY NAME: glycan array binding signal (z-score)
Kindly provide the number alone.

{"BINDER": "MSMEG3662-2a (Mycobacterium smegmatis), A0QYH7_MYCS2 (protein) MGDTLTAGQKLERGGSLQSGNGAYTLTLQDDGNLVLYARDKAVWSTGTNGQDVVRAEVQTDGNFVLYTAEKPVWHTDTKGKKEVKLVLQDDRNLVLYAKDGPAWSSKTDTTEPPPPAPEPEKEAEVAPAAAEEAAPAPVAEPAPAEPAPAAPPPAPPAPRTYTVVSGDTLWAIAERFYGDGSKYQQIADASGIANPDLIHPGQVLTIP", "glycan array binding signal (z-score)": -0.103}

*Q* Input EUL D1A first (Oryza sativa) (protein) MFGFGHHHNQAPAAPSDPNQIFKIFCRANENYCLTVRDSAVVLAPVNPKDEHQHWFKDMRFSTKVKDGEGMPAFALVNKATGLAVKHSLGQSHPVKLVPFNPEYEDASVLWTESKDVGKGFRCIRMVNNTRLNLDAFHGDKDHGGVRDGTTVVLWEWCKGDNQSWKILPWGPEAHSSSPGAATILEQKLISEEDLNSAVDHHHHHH , output reported glycan array binding signal (z-score).
*A* 2.74
